Tested on: MOLM-13
Assay: CellTiter Blue cell viability assay
Assay type: cell-based, human
Settings: Homo sapiens, MOLM-13, 48 h; read-out: cellular IC50
pIC50: −log10 of the molar value.
Field: pIC50. Provide a value for each of the molecules that follow.

See these solved cases before continuing.
| structure as smiles | pIC50 |
| --- | --- |
| NC(=O)c1c(NC(=O)c2ccc(O)c(O)c2)sc2c1CCCCC2 | < 4.52 |
| O=c1[nH]c(-c2ccc(O)c(O)c2)nc2sc3c(c12)CCCC3 | 5.04 |

From here, focus on the item given below.
Give pIC50 (MOLM-13) of the following molecule: `Cc1cc(-c2ccccc2)nc2nc(NC(=O)c3ccc(O)c(O)c3)nn12`
< 4.52

The origin of these recorded values is paper PMC9698716.
